TESTED_SYSTEM: Potassium voltage-gated channel subfamily KQT member 2 (Rattus norvegicus) (UniProt O88943)
Sequence (O88943 whole entry, looked up): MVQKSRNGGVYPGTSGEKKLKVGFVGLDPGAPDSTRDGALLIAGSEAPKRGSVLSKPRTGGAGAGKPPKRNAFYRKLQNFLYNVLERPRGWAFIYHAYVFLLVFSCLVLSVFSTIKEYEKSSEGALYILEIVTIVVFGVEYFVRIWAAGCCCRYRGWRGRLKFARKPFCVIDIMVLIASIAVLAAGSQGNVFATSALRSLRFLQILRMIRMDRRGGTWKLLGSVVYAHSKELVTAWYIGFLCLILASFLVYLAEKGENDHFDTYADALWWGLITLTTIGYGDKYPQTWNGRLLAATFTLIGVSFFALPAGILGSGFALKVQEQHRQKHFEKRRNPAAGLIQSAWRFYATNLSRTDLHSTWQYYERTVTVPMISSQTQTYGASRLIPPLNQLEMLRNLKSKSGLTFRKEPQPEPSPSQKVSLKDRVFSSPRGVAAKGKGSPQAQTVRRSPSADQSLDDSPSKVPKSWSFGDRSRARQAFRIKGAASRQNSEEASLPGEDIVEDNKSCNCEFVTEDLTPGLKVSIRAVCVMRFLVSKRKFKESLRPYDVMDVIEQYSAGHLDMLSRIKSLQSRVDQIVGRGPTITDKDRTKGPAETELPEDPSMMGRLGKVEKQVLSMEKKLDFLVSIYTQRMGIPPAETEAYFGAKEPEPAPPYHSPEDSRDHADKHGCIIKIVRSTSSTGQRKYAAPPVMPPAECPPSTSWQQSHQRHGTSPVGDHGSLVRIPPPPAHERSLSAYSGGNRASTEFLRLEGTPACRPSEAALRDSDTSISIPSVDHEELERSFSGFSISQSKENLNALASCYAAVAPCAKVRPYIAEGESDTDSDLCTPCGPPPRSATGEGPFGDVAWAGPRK
EXPERIMENT_SUMMARY: rat KCNQ2 channel potentiation, selectivity assay for KCNQ1 potentiator project, KCNQ2-CHO-K1 cells (AID 493009);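 also: assay conditions were tuned for KCNQ1 rather than KCNQ2 modulators; signal is max minus min fluorescence divided by baseline after thallium stimulus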
MEASUREMENT_PARAMETERS: FluxOR thallium flux fluorescence, at 10 µM, scaled: buffer 0, activator control 100
Calls of active or inactive are those of the source.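 The calls were made as follows: active = mean duplicate potentiation above the buffer control mean plus 5 SD of buffer wells; inactive = the rest.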
A correct response names exactly one class from active, inactive

COc1ccc(NC(=O)C(=O)NNC(=O)C(C)Oc2ccc(Cl)cc2Cl)cc1 (configuration not stated) | active
COc1ccc(C(=O)/C=C/C(=O)N(CC(=O)NC2CCCCC2)Cc2ccccc2)c(O)c1 | inactive
CCN1C(=O)/C(=C\C(=O)c2cccs2)c2cc(Br)ccc21 | inactive
CN(C)CC(CCCCC(CN(C)C)C(=O)c1ccccc1)C(=O)c1ccccc1 (configuration not stated) | inactive

Task: Please state the recorded outcome for this molecule: CCc1nnc(SCC(=O)Nc2nnc(C)s2)n1CC1CCCO1 (configuration not stated)
Output: active

Task: // query: "Cc1ccc(NC(=O)CCS(=O)(=O)c2cccc3nonc23)c(Br)c1"
Output: inactive

Task: // query: "CC(C)NC(=O)C1CCN(c2ccc(S(=O)(=O)N3CCOCC3)cc2Cl)CC1"
Output: inactive

Task: // query: CC1=NN(C(N)=S)C(=O)C1N=Nc1cccc(Cl)c1C (configuration not stated)
Output: active
